# experimental-system: Ryanodine receptor 2 (Mus musculus)
# Sequence (E9Q401 whole entry): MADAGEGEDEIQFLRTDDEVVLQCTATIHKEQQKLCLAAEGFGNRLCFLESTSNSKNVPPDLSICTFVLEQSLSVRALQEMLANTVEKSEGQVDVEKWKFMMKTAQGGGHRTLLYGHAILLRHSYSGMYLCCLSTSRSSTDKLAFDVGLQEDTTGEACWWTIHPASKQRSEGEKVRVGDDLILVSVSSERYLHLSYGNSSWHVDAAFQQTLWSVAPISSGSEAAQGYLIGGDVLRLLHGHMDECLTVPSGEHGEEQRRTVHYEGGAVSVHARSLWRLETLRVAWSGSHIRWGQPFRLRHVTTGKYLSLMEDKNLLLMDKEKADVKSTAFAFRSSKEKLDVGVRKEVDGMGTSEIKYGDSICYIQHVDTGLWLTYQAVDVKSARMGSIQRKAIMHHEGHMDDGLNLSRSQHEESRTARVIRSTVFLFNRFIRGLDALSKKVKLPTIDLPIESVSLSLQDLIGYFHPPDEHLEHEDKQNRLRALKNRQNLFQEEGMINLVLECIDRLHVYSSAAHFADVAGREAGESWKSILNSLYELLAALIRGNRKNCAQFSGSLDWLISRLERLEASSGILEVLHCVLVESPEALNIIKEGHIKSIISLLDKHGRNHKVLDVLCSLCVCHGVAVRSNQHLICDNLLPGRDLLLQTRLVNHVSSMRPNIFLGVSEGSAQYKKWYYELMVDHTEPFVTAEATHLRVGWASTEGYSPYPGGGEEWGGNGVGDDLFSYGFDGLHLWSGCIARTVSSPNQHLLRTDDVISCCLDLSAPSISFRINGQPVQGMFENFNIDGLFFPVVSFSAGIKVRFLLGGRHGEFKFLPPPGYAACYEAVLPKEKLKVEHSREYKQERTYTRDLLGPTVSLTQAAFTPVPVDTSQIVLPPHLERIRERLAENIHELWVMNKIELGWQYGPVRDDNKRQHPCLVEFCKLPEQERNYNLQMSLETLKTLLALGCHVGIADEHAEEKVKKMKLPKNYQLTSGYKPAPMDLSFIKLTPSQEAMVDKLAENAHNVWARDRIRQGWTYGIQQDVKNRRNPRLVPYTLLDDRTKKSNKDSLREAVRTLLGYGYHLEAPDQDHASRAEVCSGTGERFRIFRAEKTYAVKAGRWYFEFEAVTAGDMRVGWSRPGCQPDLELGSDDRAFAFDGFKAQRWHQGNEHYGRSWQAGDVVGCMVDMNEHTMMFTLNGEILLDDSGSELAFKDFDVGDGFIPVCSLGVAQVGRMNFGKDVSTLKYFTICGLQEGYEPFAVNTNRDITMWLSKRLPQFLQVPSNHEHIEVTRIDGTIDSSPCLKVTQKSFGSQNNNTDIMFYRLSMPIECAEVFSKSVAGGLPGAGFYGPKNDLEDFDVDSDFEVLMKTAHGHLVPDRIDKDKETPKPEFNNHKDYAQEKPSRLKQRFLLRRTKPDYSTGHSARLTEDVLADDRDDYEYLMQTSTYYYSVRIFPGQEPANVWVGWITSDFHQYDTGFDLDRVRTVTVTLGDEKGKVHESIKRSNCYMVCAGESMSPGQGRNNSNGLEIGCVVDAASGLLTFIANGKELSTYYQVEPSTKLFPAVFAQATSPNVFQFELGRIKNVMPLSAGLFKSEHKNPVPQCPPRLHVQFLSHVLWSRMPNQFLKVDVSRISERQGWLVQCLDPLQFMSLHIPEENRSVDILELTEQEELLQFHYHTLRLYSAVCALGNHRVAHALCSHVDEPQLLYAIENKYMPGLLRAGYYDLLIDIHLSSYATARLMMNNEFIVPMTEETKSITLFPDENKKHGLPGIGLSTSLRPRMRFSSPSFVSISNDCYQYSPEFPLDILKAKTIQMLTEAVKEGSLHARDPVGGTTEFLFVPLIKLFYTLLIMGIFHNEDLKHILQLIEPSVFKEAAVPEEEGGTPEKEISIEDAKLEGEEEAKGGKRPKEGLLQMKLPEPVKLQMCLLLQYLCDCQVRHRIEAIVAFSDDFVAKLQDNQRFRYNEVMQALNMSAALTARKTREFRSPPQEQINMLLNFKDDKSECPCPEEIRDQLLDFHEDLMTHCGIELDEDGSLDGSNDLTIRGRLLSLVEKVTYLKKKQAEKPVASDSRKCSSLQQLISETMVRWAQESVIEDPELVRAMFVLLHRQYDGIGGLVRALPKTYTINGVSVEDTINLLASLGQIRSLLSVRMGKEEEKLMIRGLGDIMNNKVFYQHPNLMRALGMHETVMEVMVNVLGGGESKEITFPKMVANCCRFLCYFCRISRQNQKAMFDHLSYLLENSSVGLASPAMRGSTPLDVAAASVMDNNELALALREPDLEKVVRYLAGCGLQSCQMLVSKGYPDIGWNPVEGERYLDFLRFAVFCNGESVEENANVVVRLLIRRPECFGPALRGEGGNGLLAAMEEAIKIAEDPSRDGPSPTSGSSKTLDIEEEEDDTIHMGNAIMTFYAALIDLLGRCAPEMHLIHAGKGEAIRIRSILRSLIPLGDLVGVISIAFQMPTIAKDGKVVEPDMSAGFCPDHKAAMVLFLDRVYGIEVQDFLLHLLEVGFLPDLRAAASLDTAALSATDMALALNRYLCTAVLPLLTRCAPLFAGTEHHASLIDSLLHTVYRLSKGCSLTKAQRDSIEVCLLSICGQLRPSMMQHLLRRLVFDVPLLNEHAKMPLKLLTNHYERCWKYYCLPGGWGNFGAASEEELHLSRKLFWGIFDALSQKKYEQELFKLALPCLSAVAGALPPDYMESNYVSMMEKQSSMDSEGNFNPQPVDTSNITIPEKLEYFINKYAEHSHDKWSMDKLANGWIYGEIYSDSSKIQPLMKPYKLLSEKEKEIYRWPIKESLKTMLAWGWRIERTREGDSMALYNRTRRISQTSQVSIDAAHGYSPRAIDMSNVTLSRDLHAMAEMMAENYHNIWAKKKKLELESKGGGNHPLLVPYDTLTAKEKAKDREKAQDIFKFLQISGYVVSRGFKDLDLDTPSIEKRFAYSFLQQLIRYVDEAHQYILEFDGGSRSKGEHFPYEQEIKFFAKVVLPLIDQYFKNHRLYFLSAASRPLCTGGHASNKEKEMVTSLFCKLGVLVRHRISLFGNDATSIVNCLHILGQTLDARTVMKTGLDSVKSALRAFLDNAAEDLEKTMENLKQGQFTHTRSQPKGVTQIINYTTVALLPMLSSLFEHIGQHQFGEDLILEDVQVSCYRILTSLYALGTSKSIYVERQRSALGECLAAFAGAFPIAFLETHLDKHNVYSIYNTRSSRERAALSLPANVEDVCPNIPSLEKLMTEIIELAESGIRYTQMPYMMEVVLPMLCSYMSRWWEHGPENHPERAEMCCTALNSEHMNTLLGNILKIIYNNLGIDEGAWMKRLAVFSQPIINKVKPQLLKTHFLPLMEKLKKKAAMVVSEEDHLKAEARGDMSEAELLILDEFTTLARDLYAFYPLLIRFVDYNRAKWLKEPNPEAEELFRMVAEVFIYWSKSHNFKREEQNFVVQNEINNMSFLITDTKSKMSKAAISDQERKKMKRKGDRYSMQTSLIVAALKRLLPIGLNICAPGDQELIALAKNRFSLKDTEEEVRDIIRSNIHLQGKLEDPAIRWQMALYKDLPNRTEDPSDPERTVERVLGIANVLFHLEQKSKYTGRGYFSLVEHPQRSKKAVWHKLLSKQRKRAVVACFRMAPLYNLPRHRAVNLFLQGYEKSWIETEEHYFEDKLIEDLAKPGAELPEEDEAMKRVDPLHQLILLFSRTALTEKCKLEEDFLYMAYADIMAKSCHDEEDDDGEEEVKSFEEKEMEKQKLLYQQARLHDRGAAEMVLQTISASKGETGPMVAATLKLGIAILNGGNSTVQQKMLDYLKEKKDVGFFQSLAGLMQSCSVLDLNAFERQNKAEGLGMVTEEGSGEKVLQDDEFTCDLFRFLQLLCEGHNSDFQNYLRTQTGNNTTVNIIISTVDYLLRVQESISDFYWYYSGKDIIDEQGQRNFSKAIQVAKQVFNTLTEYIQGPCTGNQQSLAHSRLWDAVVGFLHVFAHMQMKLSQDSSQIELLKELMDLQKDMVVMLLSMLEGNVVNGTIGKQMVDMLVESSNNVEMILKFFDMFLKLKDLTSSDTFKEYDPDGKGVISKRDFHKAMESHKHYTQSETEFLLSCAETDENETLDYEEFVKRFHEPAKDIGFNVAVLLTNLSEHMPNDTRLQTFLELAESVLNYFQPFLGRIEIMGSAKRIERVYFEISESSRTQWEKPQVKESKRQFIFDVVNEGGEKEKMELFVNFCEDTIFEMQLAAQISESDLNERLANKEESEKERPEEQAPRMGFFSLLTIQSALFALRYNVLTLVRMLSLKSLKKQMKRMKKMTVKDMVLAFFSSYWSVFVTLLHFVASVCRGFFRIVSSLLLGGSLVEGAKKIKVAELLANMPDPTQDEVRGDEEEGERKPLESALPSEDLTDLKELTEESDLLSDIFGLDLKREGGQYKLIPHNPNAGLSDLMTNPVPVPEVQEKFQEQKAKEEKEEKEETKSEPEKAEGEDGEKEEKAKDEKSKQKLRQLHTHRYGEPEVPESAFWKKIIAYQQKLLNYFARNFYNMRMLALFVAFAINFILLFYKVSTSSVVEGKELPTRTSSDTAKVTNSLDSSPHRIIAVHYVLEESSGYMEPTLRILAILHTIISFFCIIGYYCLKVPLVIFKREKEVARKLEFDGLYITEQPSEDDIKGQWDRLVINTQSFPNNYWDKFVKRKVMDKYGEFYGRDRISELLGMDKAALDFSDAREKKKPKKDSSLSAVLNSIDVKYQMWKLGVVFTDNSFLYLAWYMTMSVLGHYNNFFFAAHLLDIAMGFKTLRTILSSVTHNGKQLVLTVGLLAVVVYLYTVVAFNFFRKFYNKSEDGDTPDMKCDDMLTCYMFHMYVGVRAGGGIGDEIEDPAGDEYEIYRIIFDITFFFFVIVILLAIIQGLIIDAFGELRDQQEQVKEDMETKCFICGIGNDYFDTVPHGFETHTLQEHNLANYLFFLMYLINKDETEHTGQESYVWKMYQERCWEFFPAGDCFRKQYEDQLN
# experiment-description: Inhibition of RyR2 in Casq2 gene knockout mouse cardiomyocytes assessed as reduction in calcium sparks frequency incubated for 30 mins
endpoint: pIC50
The meaning of pIC50 here: minus log10 of the concentration in molar units.

smiles_text=CCCCC[C@@H]1OC(=O)[C@@H](C)N(C)C(=O)[C@H](CCCCC)OC(=O)[C@@H](C)N(C)C(=O)[C@H](CCCCC)OC(=O)[C@@H](C)N(C)C1=O experimental_system="Ryanodine receptor 2 (Mus musculus)" numeric_readout=5.41

# input for lookup
Exercise: Quote pIC50 reported for CCCCC[C@@H]1OC(=O)[C@@H](C)N(C)C(=O)[C@H](CCCCC)OC(=O)[C@@H](C)N(C)C(=O)[C@H](CCCCC)OC(=O)[C@@H](C)N(C)C(=O)[C@H](CCCCC)OC(=O)[C@@H](C)N(C)C1=O please.
Solution: 5.72
